- assayNotes: self-splicing fitness, log relative to wild type (ln ratio); higher = more splicing; Tetrahymena group I intron in knt gene, E. coli kanamycin selection, DiMSum; sequences stand for … in CUCUCU…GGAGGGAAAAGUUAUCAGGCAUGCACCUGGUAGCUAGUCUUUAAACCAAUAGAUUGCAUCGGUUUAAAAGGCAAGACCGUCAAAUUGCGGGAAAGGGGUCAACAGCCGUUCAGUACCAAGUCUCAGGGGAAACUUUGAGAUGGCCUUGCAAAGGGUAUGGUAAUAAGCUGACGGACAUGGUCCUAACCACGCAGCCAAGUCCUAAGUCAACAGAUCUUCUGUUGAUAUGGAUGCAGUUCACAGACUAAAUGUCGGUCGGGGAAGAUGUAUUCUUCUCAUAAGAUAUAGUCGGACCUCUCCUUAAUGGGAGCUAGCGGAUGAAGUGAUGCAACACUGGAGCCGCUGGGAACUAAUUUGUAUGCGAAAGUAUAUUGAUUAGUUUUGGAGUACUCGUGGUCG;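 note: selection with 25 µg/mL kanamycin versus none on LB agar overnight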
- details: 30 °C
Outcome: criterion met for self-splicing fitness (ln) of at least -2; criterion not met for anything lower.

Please review the following examples before continuing.
[
  {
    "entrySequence": "GAGUAGCAAUAUUACGCCUA",
    "categoryLabel": "criterion met"
  },
  {
    "entrySequence": "GCCGAGCAAUAUUACGGUUC",
    "categoryLabel": "criterion not met"
  },
  {
    "entrySequence": "CGGUAGCAAUAUUACGUCUC",
    "categoryLabel": "criterion not met"
  },
  {
    "entrySequence": "UUUAAGCAAUAUUACGGCAA",
    "categoryLabel": "criterion met"
  },
  {
    "entrySequence": "CGAAAGCAAUAUUACGAACG",
    "categoryLabel": "criterion met"
  },
  {
    "entrySequence": "CGUUAGCAAUAUUACGAGGU",
    "categoryLabel": "criterion not met"
  }
]

Exercise: Could you verify whether the entry GCUAAGCAAUAUUACGGGCG shows self-splicing fitness (ln) of no less than -2?
Key: criterion met

Exercise: Could you verify whether the entry CGAAAGCAAUAUUACGGGGU shows self-splicing fitness (ln) of no less than -2?
Key: criterion not met

Exercise: Could you verify whether the entry CCGCAGCAAUAUUACGCUAU shows self-splicing fitness (ln) of no less than -2?
Key: criterion not met

---

- assayNotes: self-splicing fitness, log relative to wild type (ln ratio); higher = more splicing; Tetrahymena group I intron in knt gene, E. coli kanamycin selection, DiMSum; sequences stand for … in CUCUCU…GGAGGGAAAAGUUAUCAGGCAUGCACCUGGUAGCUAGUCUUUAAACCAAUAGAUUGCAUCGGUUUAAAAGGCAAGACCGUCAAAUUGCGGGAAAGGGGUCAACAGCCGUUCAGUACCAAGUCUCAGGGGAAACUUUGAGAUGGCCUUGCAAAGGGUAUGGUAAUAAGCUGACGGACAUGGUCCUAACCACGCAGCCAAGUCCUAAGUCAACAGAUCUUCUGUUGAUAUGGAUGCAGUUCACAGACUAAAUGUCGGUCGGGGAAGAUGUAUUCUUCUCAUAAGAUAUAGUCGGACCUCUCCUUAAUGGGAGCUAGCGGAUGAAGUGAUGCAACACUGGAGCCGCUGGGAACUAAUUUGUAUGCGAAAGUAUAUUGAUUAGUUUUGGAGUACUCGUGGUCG
- details: 30 °C
Recorded self-splicing fitness (ln), one value per entry.
# answer = number (no unit)

Please review the following examples before continuing.
[
  {
    "entrySequence": "UGUUAGCAAUAUUACGGCUC",
    "val": -2.55
  },
  {
    "entrySequence": "AUAAAGCAAUAUUACGGAAU",
    "val": -1.16
  },
  {
    "entrySequence": "CCGAAGCAAUAUUACGUCGC",
    "val": -3.18
  },
  {
    "entrySequence": "CUAAAGCAAUAUUACGAAAC",
    "val": -3.29
  },
  {
    "entrySequence": "CAUUAGCAAUAUUACGCGUC",
    "val": -2.64
  }
]

Please turn your attention to the following entry.
Exercise: Recorded self-splicing fitness (ln) for GUUGAGCAAUAUUACGCCUA , please?
Key: -1.73
